Reported zone of inhibition at 30 µg/mL by item:
- Tested on: Aspergillus niger
- Experimental details: Antifungal activity against Aspergillus niger MTCC 1344 at 30 ug/ml after 24 to 96 hrs by agar cup diffusion method
- Type: functional
- Measurement context: read-out: DIZ
Quantity name: zone of inhibition at 30 µg/mL

# Smiles code, Result
measured = [
    ("O=C(/C=C/C[C@@H]1CC=CC(=O)O1)CCc1ccccc1", "14 mm"),
    ("Clc1ccccc1C(c1ccccc1)(c1ccccc1)n1ccnc1", "18 mm"),
    ("O=C1C=CC[C@@H](C/C=C/[C@@H](O)CCc2ccccc2)O1", "9 mm"),
    ("O=C1C=CC[C@@H](C/C=C/[C@H](O)CCc2ccccc2)O1", "11 mm"),
]

====

- Tested on: Pseudomonas aeruginosa
- Experimental details: Antibacterial activity against Pseudomonas aeruginosa MTCC 741 by broth dilution method
- Type: functional
Reported log10 MIC by item:
Quantity name: log10 MIC (log10 of the value in mg/L)

# Smiles code, log10 MIC
rows = [
    ("O=C(/C=C/C[C@@H]1CC=CC(=O)O1)CCc1ccccc1", 1.10),
    ("O=C1C=CC[C@@H](C/C=C/[C@H](O)CCc2ccccc2)O1", 1.40),
    ("CN[C@@H]1[C@H](O[C@H]2[C@H](O[C@H]3[C@H](O)[C@@H](O)[C@H](N=C(N)N)[C@@H](O)[C@@H]3N=C(N)N)O[C@@H](C)[C@]2(O)C=O)O[C@@H](CO)[C@H](O)[C@H]1O", 0.19),
    ("O=C1C=CC[C@@H](C/C=C/[C@@H](O)CCc2ccccc2)O1", 1.70),
    ("O=C1CN(/N=C/c2ccc([N+](=O)[O-])o2)C(=O)N1", 2.00),
]

====

- Tested on: Escherichia coli
- Experimental details: Antibacterial activity against Escherichia coli MTCC 443 by broth dilution method
- Type: functional
Reported MIC by item:

# Smiles code, MIC (µg/mL)
data = [
    ("O=C1CN(/N=C/c2ccc([N+](=O)[O-])o2)C(=O)N1", 25),
    ("O=C(/C=C/C[C@@H]1CC=CC(=O)O1)CCc1ccccc1", 50),
    ("CN[C@@H]1[C@H](O[C@H]2[C@H](O[C@H]3[C@H](O)[C@@H](O)[C@H](N=C(N)N)[C@@H](O)[C@@H]3N=C(N)N)O[C@@H](C)[C@]2(O)C=O)O[C@@H](CO)[C@H](O)[C@H]1O", 1.56),
    ("O=C1C=CC[C@@H](C/C=C/[C@H](O)CCc2ccccc2)O1", 100),
    ("O=C1C=CC[C@@H](C/C=C/[C@@H](O)CCc2ccccc2)O1", 100),
]
